Each recorded value in this set is attributed to patent US11459315B2.

- Test system: H3K27me3 mark in HeLa cells (EZH2)
- ASSAY_DETAILS: H3K27me3 Alpha Hela Assay (AlphaLISA)
- Assay type: cell-based
- CONDITION_DETAILS: HeLa cell assay; Table 3 classes; read-out: EC50 Cellular Activity
Examples of compounds with documented EC50 follow.

{"columns": ["COMPOUND", "MEASURED_PARAMETER", "MEASURED_VALUE"],
 "data": [
  ["CSc1cc(C)[nH]c(=O)c1CNC(=O)c1c(C)n([C@H](C)C2CCC(NC3COC3)CC2)c2ccccc12 (single isomer, unassigned) [drawing 213]", "EC50", "< 5 nM"],
  ["CSc1cc(C)[nH]c(=O)c1CNC(=O)c1c(C)n([C@H](C)C2OCC(N(C)C)CO2)c2ccccc12 (single isomer, unassigned) [drawing 232]", "EC50", "< 5 nM"]
]}

Now look at this one.
[in] Give the reported EC50 for this compound. Cc1cc(Cl)c(CNC(=O)c2c(C)n([C@H](C)C3CCC(NC4(C)COC4)CC3)c3ccccc23)c(=O)[nH]1 (single isomer, unassigned) [drawing 201]
[out] 25 to 125 nM
